# System: Candida albicans
# measurementNotes: Minimum inhibitory concentration (MIC) to Candida albicans after 48 hr
# Type: functional
propertyLabel: MIC

Supply MIC value. Item: C=C(Br)CN1C[C@H](OCC23C[C@@H]4[C@H](C)CC[C@H]4C4(C=O)CC2C=C(C(C)C)[C@@]34C(=O)O)OC[C@H]1C
< 0.06 µg/mL

Supply MIC value. Item: C=C(Cl)CN1C[C@H](OCC23C[C@@H]4[C@H](C)CC[C@H]4C4(C=O)CC2C=C(C(C)C)[C@@]34C(=O)O)O[C@H](C)[C@H]1C
< 0.06 µg/mL

Supply MIC value. Item: CC(C)C1=CC2CC3(C=O)[C@@H]4CC[C@@H](C)[C@H]4CC2(CO[C@H]2CN(Cc4ccccc4Cl)[C@H](C)CO2)[C@]13C(=O)O
< 0.06 µg/mL

Supply MIC value. Item: C=C(Cl)CN1C[C@H](OCC23C[C@@H]4[C@H](C)CC[C@H]4C4(C=O)CC2C=C(C(C)C)[C@@]34C(=O)O)O[C@@H]2CCC[C@H]21
< 0.06 µg/mL

Supply MIC value. Item: CC(C)C1=CC2CC3(C=O)[C@@H]4CC[C@@H](C)[C@H]4CC2(CO[C@H]2CN(CC=C(Cl)Cl)[C@H](C)CO2)[C@]13C(=O)O
< 0.06 µg/mL

Supply MIC value. Item: C=C(Cl)CN1C[C@H](OCC23C[C@@H]4[C@H](C)CC[C@H]4C4(C=O)CC2C=C(C(C)C)[C@@]34C(=O)O)OC[C@H]1C
< 0.06 µg/mL

Supply MIC value. Item: C=C(C#N)CN1C[C@H](OCC23C[C@@H]4[C@H](C)CC[C@H]4C4(C=O)CC2C=C(C(C)C)[C@@]34C(=O)O)OC[C@H]1C
0.25 µg/mL

Supply MIC value. Item: C=CCN1C[C@H](OCC23C[C@@H]4[C@H](C)CC[C@H]4C4(C=O)CC2C=C(C(C)C)[C@@]34C(=O)O)OC[C@H]1C
0.125 µg/mL

Supply MIC value. Item: CC(C)C1=CC2CC3(C=O)[C@@H]4CC[C@@H](C)[C@H]4CC2(CO[C@H]2CN(c4ccc(Cl)s4)[C@H](C)CO2)[C@]13C(=O)O
< 0.06 µg/mL

Supply MIC value. Item: CC(C)C1=CC2CC3(C=O)[C@@H]4CC[C@@H](C)[C@H]4CC2(CO[C@H]2CN(CC4CC4)[C@H](C)CO2)[C@]13C(=O)O
2 µg/mL

Supply MIC value. Item: C=C(Cl)CN1C[C@H](OCC23C[C@@H]4[C@H](C)CC[C@H]4C4(C=O)CC2C=C(C(C)C)[C@@]34C(=O)O)OC[C@H]1C(C)C
< 0.06 µg/mL

Supply MIC value. Item: C=C(Cl)CN1C[C@H](OCC23C[C@@H]4[C@H](C)CC[C@H]4C4(C=O)CC2C=C(C(C)C)[C@@]34C(=O)O)OC[C@H]1C(F)(F)F
< 0.06 µg/mL

----------
# System: Aspergillus fumigatus
# measurementNotes: Minimum inhibitory concentration (MIC) to Aspergillus fumigatus after 48 hr
# Format: functional
# conditionInfo: Aspergillus fumigatus, 48 h; read-out: MIC
Kindly supply the reported MIC values for the records listed here.

Supply MIC value. Item: CC(C)C1=CC2CC3(C=O)[C@@H]4CC[C@@H](C)[C@H]4CC2(CO[C@H]2CN(c4ccc(Cl)s4)[C@H](C)CO2)[C@]13C(=O)O
> 128 µg/mL

Supply MIC value. Item: CC(C)C1=CC2CC3(C=O)[C@@H]4CC[C@@H](C)[C@H]4CC2(CO[C@H]2CN(C/C=C\Br)[C@H](C)CO2)[C@]13C(=O)O
> 128 µg/mL

Supply MIC value. Item: C=C(Cl)CN1C[C@H](OCC23C[C@@H]4[C@H](C)CC[C@H]4C4(C=O)CC2C=C(C(C)C)[C@@]34C(=O)O)O[C@@H]2CCC[C@H]21
64 µg/mL

Supply MIC value. Item: C=C(Cl)CN1C[C@H](OCC23C[C@@H]4[C@H](C)CC[C@H]4C4(C=O)CC2C=C(C(C)C)[C@@]34C(=O)O)OC[C@H]1C
32 µg/mL

Supply MIC value. Item: CC(C)C1=CC2CC3(C=O)[C@@H]4CC[C@@H](C)[C@H]4CC2(CO[C@H]2CN(Cc4ccccc4Cl)[C@H](C)CO2)[C@]13C(=O)O
> 128 µg/mL

Supply MIC value. Item: CC(C)C1=CC2CC3(C=O)[C@@H]4CC[C@@H](C)[C@H]4CC2(CO[C@H]2CN(C4C=CCCC4)[C@H](C)CO2)[C@]13C(=O)O (stereo partly specified)
> 128 µg/mL

----------
# Test system: Cryptococcus neoformans
# measurementNotes: Minimum inhibitory concentration against Cryptococcus neoformans after 48 hours
# Type: functional
propertyLabel: log10 of MIC (log10 of the value in µg/mL)
On a log10 scale: recorded MIC, unit µg/mL.

Supply log10 of MIC value. Item: COc1ccc(CN2C[C@H](OCC34C[C@@H]5[C@H](C)CC[C@H]5C5(C=O)CC3C=C(C(C)C)[C@@]45C(=O)O)OC[C@H]2C)cc1
-0.30

Supply log10 of MIC value. Item: C=C(Cl)CN1C[C@H](OCC23C[C@@H]4[C@H](C)CC[C@H]4C4(C=O)CC2C=C(C(C)C)[C@@]34C(=O)O)OC[C@H]1CO
0.30

Supply log10 of MIC value. Item: C=C(Cl)CN1C[C@H](OCC23C[C@@H]4[C@H](C)CC[C@H]4C4(C=O)CC2C=C(C(C)C)[C@@]34C(=O)O)O[C@@H]2CCC[C@H]21
-0.60

Supply log10 of MIC value. Item: CC(C)C1=CC2CC3(C=O)[C@@H]4CC[C@@H](C)[C@H]4CC2(CO[C@H]2CN(CC=C(F)F)[C@H](C)CO2)[C@]13C(=O)O
1.81

Supply log10 of MIC value. Item: CC(C)CN1C[C@H](OCC23C[C@@H]4[C@H](C)CC[C@H]4C4(C=O)CC2C=C(C(C)C)[C@@]34C(=O)O)OC[C@H]1C
1.51

Supply log10 of MIC value. Item: CC(C)C1=CC2CC3(C=O)[C@@H]4CC[C@@H](C)[C@H]4CC2(CO[C@H]2CN(CC=C(Cl)Cl)[C@H](C)CO2)[C@]13C(=O)O
1.20

Supply log10 of MIC value. Item: CC(C)C1=CC2CC3(C=O)[C@@H]4CC[C@@H](C)[C@H]4CC2(CO[C@H]2CN(Cc4ccccc4Cl)[C@H](C)CO2)[C@]13C(=O)O
0.60

Supply log10 of MIC value. Item: CC(C)C1=CC2CC3(C=O)[C@@H]4CC[C@@H](C)[C@H]4CC2(CO[C@H]2CN(c4ccc(Cl)s4)[C@H](C)CO2)[C@]13C(=O)O
0.30

----------
Kindly supply the reported MIC values for the records listed here.
# Tested on: Candida albicans
# measurementNotes: Minimum inhibitory concentration (MIC) to Candida albicans after 48 hr
# Type: functional

Give MIC; test system Candida albicans; compound C=C(Cl)CN1C[C@H](OCC23C[C@@H]4[C@H](C)CC[C@H]4C4(C=O)CC2C=C(C(C)C)[C@@]34C(=O)O)O[C@H](C)C1
< 0.06 µg/mL

Give MIC; test system Candida albicans; compound COc1ccc(CN2C[C@H](OCC34C[C@@H]5[C@H](C)CC[C@H]5C5(C=O)CC3C=C(C(C)C)[C@@]45C(=O)O)OC[C@H]2C)cc1
< 0.06 µg/mL

Give MIC; test system Candida albicans; compound CC(C)C1=CC2CC3(C=O)[C@@H]4CC[C@@H](C)[C@H]4CC2(CO[C@H]2CN(C/C=C\Br)[C@H](C)CO2)[C@]13C(=O)O
< 0.06 µg/mL

Give MIC; test system Candida albicans; compound C=C(Cl)CN1C[C@H](OCC23C[C@@H]4[C@H](C)CC[C@H]4C4(C=O)CC2C=C(C(C)C)[C@@]34C(=O)O)OCC12CCCC2
< 0.008 µg/mL

----------
# Test system: Cryptococcus neoformans
# measurementNotes: Minimum inhibitory concentration against Cryptococcus neoformans after 48 hours
# Assay type: functional
propertyLabel: MIC

Give MIC; test system Cryptococcus neoformans; compound CC(C)C1=CC2CC3(C=O)[C@@H]4CC[C@@H](C)[C@H]4CC2(CO[C@H]2CN(S(=O)(=O)C4CC4)[C@H](C)CO2)[C@]13C(=O)O
> 128 µg/mL

Give MIC; test system Cryptococcus neoformans; compound CC(C)C1=CC2CC3(C=O)[C@@H]4CC[C@@H](C)[C@H]4CC2(CO[C@H]2CN[C@H](C)CO2)[C@]13C(=O)O
> 128 µg/mL

Give MIC; test system Cryptococcus neoformans; compound CC(C)C1=CC2CC3(C=O)[C@@H]4CC[C@@H](C)[C@H]4CC2(CO[C@H]2CN(C/C=C\Br)[C@H](C)CO2)[C@]13C(=O)O
> 128 µg/mL

Give MIC; test system Cryptococcus neoformans; compound CC(C)C1=CC2CC3(C=O)[C@@H]4CC[C@@H](C)[C@H]4CC2(CO[C@H]2CN(CC4CC4)[C@H](C)CO2)[C@]13C(=O)O
> 128 µg/mL

Give MIC; test system Cryptococcus neoformans; compound CC(C)=CCN1C[C@H](OCC23C[C@@H]4[C@H](C)CC[C@H]4C4(C=O)CC2C=C(C(C)C)[C@@]34C(=O)O)OC[C@H]1C
> 128 µg/mL

Give MIC; test system Cryptococcus neoformans; compound C=C(Br)CN1C[C@H](OCC23C[C@@H]4[C@H](C)CC[C@H]4C4(C=O)CC2C=C(C(C)C)[C@@]34C(=O)O)OC[C@H]1C
< 0.06 µg/mL

Give MIC; test system Cryptococcus neoformans; compound C=C(Cl)CN1C[C@H](OCC23C[C@@H]4[C@H](C)CC[C@H]4C4(C=O)CC2C=C(C(C)C)[C@@]34C(=O)O)OCC12CCCC2
< 0.008 µg/mL

Give MIC; test system Cryptococcus neoformans; compound C=C(Cl)CN1C[C@H](OCC23C[C@@H]4[C@H](C)CC[C@H]4C4(C=O)CC2C=C(C(C)C)[C@@]34C(=O)O)OC[C@H]1C
< 0.06 µg/mL

Give MIC; test system Cryptococcus neoformans; compound C=C(Cl)CN1C[C@H](OCC23C[C@@H]4[C@H](C)CC[C@H]4C4(C=O)CC2C=C(C(C)C)[C@@]34C(=O)O)OC[C@H]1C(C)C
< 0.06 µg/mL

Give MIC; test system Cryptococcus neoformans; compound CC(C)C1=CC2CC3(C=O)[C@@H]4CC[C@@H](C)[C@H]4CC2(CO[C@H]2CN(C4C=CCCC4)[C@H](C)CO2)[C@]13C(=O)O (stereo partly specified)
> 128 µg/mL

Give MIC; test system Cryptococcus neoformans; compound C=C(Cl)CN1C[C@H](OCC23C[C@@H]4[C@H](C)CC[C@H]4C4(C=O)CC2C=C(C(C)C)[C@@]34C(=O)O)OC[C@H]1C(F)(F)F
> 128 µg/mL
